This listing pairs compounds with measured GI50.
Test system: HL-60
assay-summary: NCI tumour cell line growth inhibition, 48 h
Activity calls are given as the source filed them. No stated cut-off is given here; in the data, active = GI50 up to about 1.1 µM and inactive = higher.
parameter-measured: GI50

compound	parameter-measured	observed
N#Cc1c(-c2ccc(Cl)cc2)[nH]c(=O)n(C2OC(CO)C(O)C(O)C2O)c1=O (stereo unspecified)	GI50	> 100 µM (inactive)
COc1ccc(/N=N/C(=N/NC(=O)c2ccc(C)cc2)c2ccc(N(CCC#N)CCC#N)cc2OC)cc1	GI50	< 0.01 µM (active)
CN(c1ccc(Cl)cc1)S(=O)(=O)c1ccccc1	GI50	15 µM (inactive)
CCOC(=O)C(C)c1nc2cc(C(F)(F)F)ccc2[nH]c1=O (stereo unspecified)	GI50	62.7 µM (inactive)
O=C1CSCC(=O)Nc2ccccc2N1	GI50	> 100 µM (inactive)
OC1[C@H](O)CN(OCc2ccccc2)C[C@@H]1O (stereo partly specified)	GI50	> 100 µM (inactive)
c1ccc(NN(Cc2cnccn2)c2ccccc2)cc1	GI50	67.5 µM (inactive)
CN1CCCc2nc3ccccc3n2C1	GI50	> 100 µM (inactive)
CC1OC(n2cnc3c(N)nc(Cl)nc32)C(C)(O)C1O (stereo unspecified)	GI50	> 25 µM (inactive)
C1=Cc2ccccc2C1.C=C(C)c1ccccc1.[N-]=[N+]=Nc1ccccc1	GI50	62.4 µM (inactive)
Cc1ccc(SC(C)/C=C/NNC2=NN=C(c3ccccc3)C(c3ccccc3)N2)cc1 (stereo unspecified)	GI50	13 µM (inactive)

====

This listing pairs compounds with measured GI50.
Tested on: OVCAR-8
assay-summary: NCI tumour cell line growth inhibition, 48 h
The source made the active and inactive calls. Cut-off read from the data, not from the text of the source: active = GI50 up to about 1.1 µM and inactive = higher.

compound	experimental-system	GI50
Cc1ccc(S(=O)(=O)c2ccsc2NC(=O)c2ccccc2)cc1	OVCAR-8	28.6 µM (inactive)
O=C(O)CCC[C@]1(O)O[C@@]2(CCCC2=O)[C@]2(O)CCC[C@@]21O	OVCAR-8	> 100 µM (inactive)
NC1=NN(c2ccccc2)C(=O)C1C(=O)C(=O)Nc1nccs1 (centres undefined)	OVCAR-8	> 100 µM (inactive)
COC(=O)/C=C(C)/C=C/C1OC(C)OCC1O (centres undefined)	OVCAR-8	> 100 µM (inactive)

====

This listing pairs molecules with measured GI50.
System: MCF7
assay-summary: NCI tumour cell line growth inhibition, 48 h
Active and inactive are the calls of the source. No stated cut-off is given here; in the data, active = GI50 up to about 1.1 µM and inactive = higher.
parameter-measured: GI50

molecule	observed
Cc1cc(-c2nc3ccc(F)cc3s2)ccc1NC(=O)C(N)CCCCN (centres undefined)	0.0184 µM (active)
O=C(COc1ccc(Cl)c(Cl)c1)N(Cc1ccccc1)Cc1ccc[n+](Cc2ccc(Cl)cc2S(=O)(=O)F)c1	46.3 µM (inactive)
CCCCCCCC1c2cc3nc(cc4[nH]c(cc5nc(cc([nH]2)[C@@]1(C)CC(=O)N(C)C)C(C)=C5CCC(=O)O)c(CCC(=O)O)c4C)C=C3C (some centres undefined)	32.1 µM (inactive)
CC(C)Oc1cccc(N2C(NCCc3c[nH]c4ccccc34)=Nc3ccncc3S2(=O)=O)c1	4.73 µM (inactive)

====

Tested on: MOLT-4
assay-summary: NCI tumour cell line growth inhibition, 48 h
The source made the active and inactive calls. Rule as the data show it: active = GI50 up to about 1.1 µM and inactive = higher.
Labels: YES (active), NO (inactive)

smiles-notation	category-label
O=C(c1cc2c(c3ccccc13)NCCN=C2C(F)(F)F)C(F)(F)F	NO
CN1CCN(c2ccc3[nH]c(-c4ccc5[nH]c(-c6ccc(N(C)CCCl)cc6)nc5c4)nc3c2)CC1	YES
[N-]=[N+]=Nc1nnc(CCCCc2nnc(N=[N+]=[N-])o2)o1	NO
CCCCc1ccc(C#CC#Cc2ccc(CCCC)s2)s1	NO
COc1ccc(/N=C/N(C)C)c(C)c1	NO

====

Tested on: HCT-15
parameter-measured: GI50

compound	parameter-measured	observed
O=c1nc(/C=C/c2ccccc2Cl)cc2n1CCN2CCO	GI50	> 100 µM
O=[N+]([O-])c1cc(/N=N/c2c(O)ccc3cc(S(=O)(=O)O)ccc23)c(O)c([N+](=O)[O-])c1	GI50	51.8 µM
O=C1OC2c3ccccc3C(=O)C2(c2ccccc2)N1c1ccccc1 (stereo not drawn)	GI50	> 200 µM
CC(=O)NC(CCCCNC(=O)NCCCl)C(=O)NCc1ccccc1 (stereo not drawn)	GI50	> 100 µM
CCNc1cnc2c(n1)c(=O)n(C)c(=O)n2C	GI50	> 100 µM
CCCCCCCCCCCCCCCCC(=O)NCC(=O)NCC(=O)NC(Cc1ccccc1)C(=O)Oc1ccc([N+](=O)[O-])cc1 (stereo not drawn)	GI50	19.1 µM
CC1(C)CNC(c2ccc3c(c2)Cc2cc(C4=NC(C)(C)CN4)ccc2-3)=N1	GI50	> 100 µM
COc1ccc(C(CC(=O)c2ccccc2)C(=O)c2ccc3c(c2)OCO3)cc1 (stereo not drawn)	GI50	> 100 µM
CC(C)c1ccccc1[S+]([O-])c1ccccc1C(C)(C)O (stereo not drawn)	GI50	82 µM
CN1CCCc2nc3ccccc3n2C1	GI50	> 100 µM
O=C(Cl)C1=C(c2ccccc2)C1c1ccccc1 (stereo not drawn)	GI50	> 100 µM
COC1=CC(=O)N(C)C(O)C1(C#N)OC1OC(CO)C(O)C(O)C1O (stereo not drawn)	GI50	> 100 µM
O=C1Sc2ccccc2/C1=N/Nc1ccccc1[N+](=O)[O-]	GI50	> 100 µM
Cn1c(C(C#N)c2nc(Cl)ncc2Br)nc2ccccc21 (stereo not drawn)	GI50	> 100 µM
Cc1cc(Nc2ccc(NS(C)(=O)=O)cc2)c2c(ccc3[nH]ccc32)n1	GI50	> 100 µM
O=C(NN1CCCCC1)c1cc2cc(CCl)ccc2oc1=O	GI50	17.7 µM
CCN1c2cc(Br)cc3[nH]c(=O)n(c23)CCC1C (stereo not drawn)	GI50	14.5 µM
CN1C(=O)c2ccccc2C(O)(c2ccccc2)C1(O)c1ccccc1 (stereo not drawn)	GI50	> 100 µM
CC1=NC=C(O)c2ccccc2O1	GI50	> 100 µM
COc1cc(C(c2ccccc2)N2C(=O)CC[C@H]2C(=O)O)cc(OC)c1OC (stereo partly drawn)	GI50	> 100 µM
CN(C)c1ccc(C(=NN)c2ccc(N(C)C)cc2)cc1	GI50	0.229 µM
C=C(C)C(=O)O[C@H]1CC2=C[C@@H](C[C@@]3(C)O[C@@H]3[C@H]3OC(=O)C(=C)[C@@H]31)OC2=O [ELEPHANTOPIN]	GI50	0.927 µM
CC[C@]12C=CCN3CC[C@@]4(c5cc(Br)c(OC)cc5N(C)[C@H]4[C@@](O)(C(=O)NC(Cc4c[nH]c5ccccc45)C(=O)OC)[C@@H]1O)[C@@H]32 (stereo partly drawn)	GI50	5.74 µM
Cc1c(/C=N\NC(=S)N2CCN(C(=S)N/N=C\c3c(C)n(C)n(-c4ccccc4)c3=O)CC2)c(=O)n(-c2ccccc2)n1C	GI50	46.9 µM
COc1cc(/C=N/N=C2NCCCCN2)ccc1O	GI50	> 100 µM
CNc1ccc2c(c1)Cc1ccccc1-2	GI50	15.3 µM
CC(=O)Nc1cc2cc(NS(=O)(=O)c3cc(C(F)(F)F)cc(C(F)(F)F)c3)ccc2oc1=O	GI50	> 100 µM
Cc1cccc(C)c1NC(=O)C(=O)C(C#N)c1ccccc1 (stereo not drawn)	GI50	> 100 µM
C/C(=C\COP(=O)(O)OP(=O)(O)O)CC/C=C(\C)CNc1ccc([N+](=O)[O-])cc1	GI50	> 100 µM
CCCCCCCCCCCCCCCCCCNc1nc(=O)n(C2CC(OP(=O)(O)OCC3OC(n4cc(F)c(=O)[nH]c4=O)CC3O)C(CO)O2)cc1F (stereo not drawn)	GI50	37.5 µM
COc1cc2c(c(OC)c1OC)-c1ccc(SC)c(=O)cc1C(CC(=O)Oc1ccc([N+](=O)[O-])cc1)C2 (stereo not drawn)	GI50	0.78 µM
CC(C)NC(=O)OCc1c(COC(=O)NC(C)C)c(-c2ccc[n+](COC(=O)C(C)C)c2)n2c1CCC2	GI50	> 71.9 µM
Cc1ccc(NC(=O)C(=O)C2C(=O)C3=C(CC2(C)C)NC2C=CC=CC2S3)c(C)c1 (stereo not drawn)	GI50	> 100 µM

====

Tested on: UACC-62
assay-summary: NCI tumour cell line growth inhibition, 48 h
Active and inactive are the calls of the source. No stated cut-off is given here; in the data, active = GI50 up to about 1.1 µM and inactive = higher.
Labels: 1 for active, 0 for inactive

compound	category-label
CC1=CC(C)C(C)N(CCNC(=O)Nc2ccccc2)c2ccccc21 (configuration not stated)	0
CC(=O)OC(=C(C#N)C#N)c1nccnc1C(=O)O	0
O=C1C(=O)c2ccccc2C=C1[N+](=O)[O-]	0
O=C1c2c(O)cc(O)cc2C(C2OC(CO)C(O)C(O)C2O)c2cc(CO)cc(O)c21 (configuration not stated)	0
O=C(Nc1ccc(Br)cc1)C(=O)C(C(=O)c1ccc(Cl)c(Cl)c1)C1OC(=O)c2ccccc21 (configuration not stated)	0
O=C(O)C1(C(=O)O)CCN(S(=O)(=O)c2ccccc2)CC1	0
CC(=O)/N=C1\NC(=O)/C(=C/c2ccc(/C=C3/C(=O)N/C(=N\C(C)=O)N3C)cc2)N1C	0
COC(=O)N1N=C(c2ccccc2)C1c1ccccc1 (configuration not stated)	0
Cc1cccc(C)c1NC(=O)C(=O)C(C#N)c1ccccc1 (configuration not stated)	0
Oc1ccc2ccccc2c1/N=N/c1cccc2ccccc12	0
CSc1c(C#N)c(N)nc2c(/N=N\c3ccc(Br)cc3)c(N)nn12	0
COc1ccc(C2Oc3c(c(O)cc4c3[C@H](c3ccc(O)cc3O)[C@H](O)C(c3ccc(O)c(O)c3)O4)C[C@@H]2O)cc1O (some centres not stated)	0
Clc1ccc(/C=C/c2nc(Cl)c(-c3ccc(Cl)cc3)c(Cl)n2)cc1	0
Cc1cc(C)n(-c2c(O)ccc(O)c2-n2nc(C)cc2C)n1	0
CC(=O)OC/C=C(/C=C/CNC1CCCCC1)OC(C)=O	0
Nn1c(CCCCCCCCc2nnc(COc3c(O)ccc4ccccc34)n2N)nnc1COc1c(O)ccc2ccccc12	0
C=C(CCOC)CCC1CCCCC(=C)[C@H]1O (some centres not stated)	0
CC(C)(C)OC(=O)c1ccc(NCC2=CC(=O)C=CC2=O)cc1	0
N#Cc1cc([N+](=O)[O-])ccc1NC(=O)C(F)(F)F	0
N#Cc1nc(C#N)c(N)[nH]1	0
O=c1/c(=C/c2ccccc2O)sc2nc3ccccc3n12	0
COC(=O)CCSC(=O)Nc1ccc(/N=N/c2ccccc2)cc1	0
O=C1NC2(CCCCC2)N=C2C(Cl)CCCC12Cl (configuration not stated)	0
C[N+]1(CCCCN2c3ccccc3Sc3cc(N=[N+]=[N-])ccc32)CCN(C(=O)CCNC(=O)Cc2ccc(C(=O)c3ccccc3)cc2)CC1	0
NC1=NN(c2ccccc2)C(=O)C1C(=O)C(=O)Nc1nccs1 (configuration not stated)	0
C/C(=C\c1csc(C)n1)[C@@H]1C[C@@H]2O[C@@H]2CCC[C@H](C)[C@H](O)[C@@H](C)C(=O)C(C)(C)[C@@H](O)CC(=O)O1.C/C(=C\c1csc(C)n1)[C@@H]1C[C@@H]2O[C@]2(C)CCC[C@H](C)[C@H](O)[C@@H](C)C(=O)C(C)(C)[C@@H](O)CC(=O)O1	1
O=c1[nH]c2nc3ccccc3c(=O)n2/c1=C/c1ccc(Cl)cc1	0
COC(=O)C(=O)C(C(C)=O)C(=O)NCc1ccc(OC)c(OC)c1 (configuration not stated)	0
CCc1n[nH]c(=O)n1-c1ccc2ccccc2c1	0
COC(=O)C1=C(C(=O)OC)C2(C)C=CC1O2 (configuration not stated)	0
C/C(=N\NS(=O)(=O)c1ccccc1)c1ccccc1	0
NS(=O)(=O)c1ccc(NS(=O)(=O)c2ccc(NC(=O)N(c3ccccc3)c3ccccc3)cc2)cc1	0
CN(c1ccc(Cl)cc1)S(=O)(=O)c1ccccc1	0
CCNc1cnc2c(n1)c(=O)n(C)c(=O)n2C	0
c1ccc(COc2nc3cc(C45CC6CC(CC(C6)C4)C5)ccc3[nH]2)cc1	0
Oc1nc2cc(Cl)ccc2nc1/C(=N\Nc1ccccc1)C(O)c1ccc(Cl)c(Cl)c1 (configuration not stated)	0
O=C(c1ccc([N+](=O)[O-])cc1)N1CCCC1	0
